Overview of reported pKb, functional affinity for the α1L adrenoceptor subtype across a group of compounds:
biological target: α1L adrenoceptor (Oryctolagus cuniculus, UniProt O02824); experiment: Functional antagonism of noradrenaline-induced contractions of rabbit aorta pretreated with chloroethylclonidine; format: biochemical; settings: NA-induced contractions
Sequence (O02824 whole entry): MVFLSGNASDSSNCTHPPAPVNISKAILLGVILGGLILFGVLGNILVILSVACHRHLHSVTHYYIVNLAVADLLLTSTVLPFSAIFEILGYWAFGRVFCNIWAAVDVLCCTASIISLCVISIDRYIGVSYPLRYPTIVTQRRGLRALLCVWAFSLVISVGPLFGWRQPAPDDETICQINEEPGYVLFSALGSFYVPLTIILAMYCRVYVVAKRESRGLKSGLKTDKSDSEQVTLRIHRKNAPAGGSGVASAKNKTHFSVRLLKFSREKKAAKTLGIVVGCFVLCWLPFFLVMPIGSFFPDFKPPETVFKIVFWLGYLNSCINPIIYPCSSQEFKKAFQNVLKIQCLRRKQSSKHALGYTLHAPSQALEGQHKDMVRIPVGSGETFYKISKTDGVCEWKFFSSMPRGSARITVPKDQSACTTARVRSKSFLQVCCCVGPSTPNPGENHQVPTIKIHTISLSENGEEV

Some solved entries appear below for comparison.
# compound, result
measured = [
    ("O=C(NCCCN1CCN(c2ccc(F)cc2OCC(F)(F)F)CC1)c1csc2c(=O)cc(-c3ccccc3)oc12 [Example 7]", 8.66),
    ("COc1ccccc1N1CCN(CCCNC(=O)c2csc3c(=O)cc(C(F)(F)F)oc23)CC1 [Example 4]", 7.92),
    ("O=C(NCCCN1CCN(c2ccccc2OCC(F)(F)F)CC1)c1csc2c(=O)cc(-c3ccccc3)oc12 [Example 5]", 9.12),
]

With those in mind, consider the next compound.
Problem: Can you share its pKb, functional affinity for the α1L adrenoceptor subtype? I mean this compound: COc1ccccc1N1CCN(CCCNC(=O)c2csc3c(=O)cc(-c4ccccc4)oc23)CC1 [Example 2]
Solution: 8.85

Values from patent US6387909B1
